Measured CC50 values are reported for all entries that follow.
Experiment: Cytotoxicity against human Huh-5-2 cells
Format: cell-based
MEASUREMENT_KIND: CC50

NC(=O)c1nc(C#CC2=CCCCC2)n(COCCO)n1: > 50 µg/mL
NC(=O)c1nc(C#CC2(O)CCCCC2)n(COCCO)n1: > 50 µg/mL
CCCCCc1ccc(C#Cc2nc(C(N)=O)nn2COCCO)cc1: 25 µg/mL
NC(=O)c1nc(C#Cc2ccccc2)n(COCCO)n1: > 50 µg/mL
NC(=O)c1nc(C#Cc2ccc(C(F)(F)F)cc2)n(COCCO)n1: 20 µg/mL
NC(=O)c1nc(C#CC2(O)CCCC2)n(COCCO)n1: > 50 µg/mL
